- run-description: qHTS assay to identify small molecule antagonists of the thyroid receptor (TR) signaling pathway (AID 743065); note: nearly all actives have a fitted effect of over 55% in size; note: potency is the fitted concentration of half-maximal effect
- recorded-conditions: GH3.TRE-Luc, T3-stimulated luciferase inhibition, 23.5 h; series mostly up to 70.3 µM
- Text: U.S. Tox21 Program National Center for Advancing Translational Sciences [NCATS] NIH Chemical Genomics Center [NCGC] U.S. Environmental Protection Agency [EPA] National Institutes of Environmental Health Sciences [NIEHS] National Toxicology Program [NTP] U.S. Food and Drug Administration [FDA] Tox21 Assay Overview: Thyroid receptor (TR), a nuclear hormone receptor, plays an important role in development, proliferation, differentiation, metabolism, brain function, and cardiovascular system. […]
Records with an inconclusive call do not appear. Activity calls are given as the source filed them. Calls come from the whole dose curve; as a rule, active = well fitted inhibition curve with a large enough effect in the repeat runs; inconclusive = weak or mixed curves; inactive = no such curve, though single readings can be large or run the other way.
measure-name: Potency

Consider the following illustrative entries.
CCCN(CCC)C(=O)C(CCC(=O)O)NC(=O)c1ccccc1 (stereo not drawn): inactive
CCCCCCCOC(=O)CCC: inactive
CC(C)=CCCC(C)CCOC=O (stereo not drawn): inactive
OCC(CBr)(CBr)CBr: inactive
CCCCC1CCC(=O)O1 (stereo not drawn): inactive

## Input # get_value(readout='Potency', item= "CCN(CC)C(=O)N(CC)CC" )
## Output inactive

## Input # get_value(readout='Potency', item= CC1=NN(c2cc(Cl)c(S(=O)(=O)O)cc2Cl)C(=O)C1N=Nc1ccc(S(=O)(=O)O)cc1 (stereo not drawn) )
## Output inactive

## Input # get_value(readout='Potency', item= "CCOC(=O)[C@H](CCc1ccccc1)N[C@@H](C)C(=O)N1Cc2cc(OC)c(OC)cc2C[C@H]1C(=O)O" )
## Output inactive

## Input # get_value(readout='Potency', item= "CC(=O)N[C@@H](CC(C)C)C(=O)O" )
## Output inactive

## Input # get_value(readout='Potency', item= "CCCCCCCCCCCCOCCOS(=O)(=O)O" )
## Output 68.6 µM (active)

## Input # get_value(readout='Potency', item= Cc1ccccc1C(=O)Nc1ccc(C(=O)N2CCCC(O)c3cc(Cl)ccc32)c(C)c1 (stereo not drawn) )
## Output 23.7 µM (active)

## Input # get_value(readout='Potency', item= "CCOc1ccccc1N" )
## Output inactive

## Input # get_value(readout='Potency', item= "CC(C)S" )
## Output inactive
